Where these numbers come from: PubChem BioAssay AID1239

- protocol: activators of NF-kB expression in neurons, primary screen, cell-based, HTS (AID 1239)
- condition_notes: human neuronal cells, NF-kB reporter expression; at 12.5 µM; active compounds read high
About 3,100 (1.6%) of roughly 190,000 compounds were called active. Only a selection was taken, and actives are over-represented in it overall.
measured_attribute: fold change
Respond with the number and no other words.

# count of solved cases: 5
COc1ccc(OC)c(C(=O)CSc2nnc(-c3cccs3)o2)c1	1.11
CCCCC(O)(CCCC)C(=O)NN(C(=O)CCl)c1ccccc1	4.9
Nc1ncc(-c2cc3ccccc3oc2=O)s1	3.48
COc1ccc(-c2nnc(SCC(=O)c3cccs3)o2)c(OC)c1	5.16
COc1cc([N+](=O)[O-])ccc1NC(=S)N1CCN(c2ccccn2)CC1	1

input: // fetch fold change given entry `O=C(O)/C=C/c1ccc(S(=O)(=O)N2CCCCCC2)cc1`
output: 1.17

input: // fetch fold change given entry CCOC(=O)C(C)n1nc(-c2ccccc2)c2ccccc2c1=O (stereo unspecified)
output: 0.91

input: // fetch fold change given entry `CNc1nccc(-c2ccc(Cl)cc2)c1C#N`
output: 1.47

input: // fetch fold change given entry `COc1ccc(-n2c(C)cc(C(=O)CSc3nnc(-c4cccs4)o3)c2C)cc1`
output: 0.93

input: // fetch fold change given entry CSCC(=O)N1CCCC(C(=O)c2cc(F)ccc2F)C1 (stereo unspecified)
output: 1.18

input: // fetch fold change given entry `O=C(CN1C(=O)/C(=C/c2ccccc2F)Sc2ccccc21)NCc1cccnc1`
output: 0.69

###

Measured fold change, listed per entry for reference.
- protocol: activators of NF-kB expression in neurons, primary screen, cell-based, HTS (AID 1239)
- condition_notes: human neuronal cells, NF-kB reporter expression; at 12.5 µM; active compounds read high
The whole screen tested about 190,000 compounds, of which about 3,100 (1.6%) were called active. The sample holds actives, similar compounds and a random draw of the others, so the mix is not that of the screen.
Respond with the number and no other words.

O=C(Nc1cccc(-c2nc3ncccc3o2)c1)c1ccco1	0.74
C=CCn1nc(-c2ccccc2)c2c(C)onc2c1=O	1.1
COc1ccc(C)cc1NC(=O)CSc1ccc(Cl)cc1	1.29

input: // fetch fold change given entry `COc1cccc(-c2nc(S(=O)(=O)c3ccccc3)c(N3CCOCC3)o2)c1`
output: 1.11

input: // fetch fold change given entry `CN(Cc1ccc2nsnc2c1)Cc1nc(Cc2cccc(F)c2)no1`
output: 1.05

input: // fetch fold change given entry `O=C(Nc1ccc2oc(-c3ccccc3F)nc2c1)c1ccco1`
output: 5.05

###

Measured fold change, listed per entry for reference.
- protocol: activators of NF-kB expression in neurons, primary screen, cell-based, HTS (AID 1239)
- condition_notes: human neuronal cells, NF-kB reporter expression; at 12.5 µM; active compounds read high
Hit rate of the full screen: of about 190,000 compounds, about 3,100 (1.6%) were called active. Only a selection was taken, and actives are over-represented in it overall.
Respond with the number and no other words.

CCOc1ccc2cc(C#N)c(SCC(=O)OC)nc2c1	5.87
COc1ccc(NS(=O)(=O)c2cc(NC(=O)C3CCCCC3)ccc2N2CCOCC2)cc1	0.72
CCOc1ncccc1C(=O)OCC(=O)NC1CC1	1.17
CCOc1ccc2nc(NCCNS(=O)(=O)c3ccccc3)c(C#N)cc2c1	1.4
COc1ccccc1C1C2=C(COC2=O)Nc2cc3c(cc21)OCO3 (stereo unspecified)	1.19

input: // fetch fold change given entry CCCOc1ccccc1C1CC(=O)Nc2cc3c(cc21)OCO3 (stereo unspecified)
output: 3.71
